Where these numbers come from: ChEMBL document CHEMBL4028806

Species on record: Homo sapiens
Assay: Toxicity in human assessed as reduction in heart rate at 1.25 mg measured for 2 days
Conditions: in vivo, 48 h
Property: Activity

Exercise: What does the record list as Activity for CCCCCCCCc1ccc(CCC(N)(CO)CO)cc1 [FINGOLIMOD] ?
Solution: 8 to 11 bpm

---

Target: Sphingosine 1-phosphate receptor 3 (Homo sapiens, UniProt Q99500)
Sequence (Q99500 whole entry): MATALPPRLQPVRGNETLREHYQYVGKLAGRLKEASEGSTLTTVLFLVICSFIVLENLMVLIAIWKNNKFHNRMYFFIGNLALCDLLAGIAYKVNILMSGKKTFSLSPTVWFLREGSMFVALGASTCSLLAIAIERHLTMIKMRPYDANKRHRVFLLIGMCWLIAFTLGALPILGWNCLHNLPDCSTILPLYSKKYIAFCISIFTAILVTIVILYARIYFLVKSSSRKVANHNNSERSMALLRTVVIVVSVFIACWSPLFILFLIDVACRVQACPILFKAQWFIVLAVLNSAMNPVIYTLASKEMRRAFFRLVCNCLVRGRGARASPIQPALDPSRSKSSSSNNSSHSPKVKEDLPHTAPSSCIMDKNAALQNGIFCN
Assay: Displacement of [33P]-S1P from human S1P3 receptor expressed in CHO cell membranes
Catalogue of IC50 values
Expressed in nM, but write only the number.

* CCCCCCCCc1ccc(CNCCCC(=O)O)cc1 | 1200
* CCCCCCCCc1ccc(CC[C@@H](N)CCP(=O)(O)O)cc1 | 280
* CCCCCCCCc1ccc(CNCCCP(C)(=O)O)cc1 | 100

Exercise: I have this molecule here, "CCCCCCCCc1ccc(CN2CC(C(=O)O)C2)cc1" , and I need its recorded IC50.
Solution: 4900
